B1: library; a variant is named by its letters at N, in order (parent)
chain: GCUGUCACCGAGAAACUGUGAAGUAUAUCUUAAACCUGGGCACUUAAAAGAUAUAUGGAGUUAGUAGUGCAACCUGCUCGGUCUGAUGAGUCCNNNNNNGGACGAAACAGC

# Variants of: B1
# assay_comment: normalized RNA/DNA level without ligand (relative to sTRSVctl = 100) (log10 (% of sTRSVctl)); HEK293T; ligand: cyclic di-GMP (c-di-GMP-II aptamer); higher = less ribozyme self-cleavage, higher mRNA level
# cond: reporter: mCherry (pCS4076), ligand present: no
// reported normalized RNA/DNA level without ligand (log10) per item
Give your answer as a number; write no unit.

INSERT INTO assay_data (monomer_sequence, result_number) VALUES
  ('GCUGUCACCGAGAAACUGUGAAGUAUAUCUUAAACCUGGGCACUUAAAAGAUAUAUGGAGUUAGUAGUGCAACCUGCUCGGUCUGAUGAGUCCACAGGAGGACGAAACAGC [ACAGGA]', 1.3),
  ('GCUGUCACCGAGAAACUGUGAAGUAUAUCUUAAACCUGGGCACUUAAAAGAUAUAUGGAGUUAGUAGUGCAACCUGCUCGGUCUGAUGAGUCCCCCGUGGGACGAAACAGC [CCCGUG]', 1.62),
  ('GCUGUCACCGAGAAACUGUGAAGUAUAUCUUAAACCUGGGCACUUAAAAGAUAUAUGGAGUUAGUAGUGCAACCUGCUCGGUCUGAUGAGUCCCUGCCAGGACGAAACAGC [CUGCCA]', 1.61),
  ('GCUGUCACCGAGAAACUGUGAAGUAUAUCUUAAACCUGGGCACUUAAAAGAUAUAUGGAGUUAGUAGUGCAACCUGCUCGGUCUGAUGAGUCCACUAGAGGACGAAACAGC [ACUAGA]', 1.41),
  ('GCUGUCACCGAGAAACUGUGAAGUAUAUCUUAAACCUGGGCACUUAAAAGAUAUAUGGAGUUAGUAGUGCAACCUGCUCGGUCUGAUGAGUCCCUGUAUGGACGAAACAGC [CUGUAU]', 1.56),
  ('GCUGUCACCGAGAAACUGUGAAGUAUAUCUUAAACCUGGGCACUUAAAAGAUAUAUGGAGUUAGUAGUGCAACCUGCUCGGUCUGAUGAGUCCCAUUAGGGACGAAACAGC [CAUUAG]', 1.74),
  ('GCUGUCACCGAGAAACUGUGAAGUAUAUCUUAAACCUGGGCACUUAAAAGAUAUAUGGAGUUAGUAGUGCAACCUGCUCGGUCUGAUGAGUCCUCACCCGGACGAAACAGC [UCACCC]', 1.83),
  ('GCUGUCACCGAGAAACUGUGAAGUAUAUCUUAAACCUGGGCACUUAAAAGAUAUAUGGAGUUAGUAGUGCAACCUGCUCGGUCUGAUGAGUCCGAGUUUGGACGAAACAGC [GAGUUU]', 1.79);

query: Quick one: give measured normalized RNA/DNA level without ligand (log10) for GCUGUCACCGAGAAACUGUGAAGUAUAUCUUAAACCUGGGCACUUAAAAGAUAUAUGGAGUUAGUAGUGCAACCUGCUCGGUCUGAUGAGUCCCGUCAGGGACGAAACAGC [CGUCAG]
result: 1.79

query: Hello, please tell me recorded normalized RNA/DNA level without ligand (log10) for this one: GCUGUCACCGAGAAACUGUGAAGUAUAUCUUAAACCUGGGCACUUAAAAGAUAUAUGGAGUUAGUAGUGCAACCUGCUCGGUCUGAUGAGUCCAACUACGGACGAAACAGC [AACUAC]
result: 1.7

query: Consider the variant GCUGUCACCGAGAAACUGUGAAGUAUAUCUUAAACCUGGGCACUUAAAAGAUAUAUGGAGUUAGUAGUGCAACCUGCUCGGUCUGAUGAGUCCUGGUACGGACGAAACAGC [UGGUAC] and give its recorded normalized RNA/DNA level without ligand (log10).
result: 1.68

Cited source for all entries: the supplement of paper PMC6757056
